Tested on: NCI-H226
Assay: NCI tumour cell line growth inhibition, 48 h
Structures can show the parent of a compound that is named as a salt. Calls of active or inactive are those of the source. Cut-off read from the data, not from the text of the source: active = GI50 up to about 1.1 µM and inactive = higher.

>  <COMPOUND>
COC(=O)C12C3C=CC(O3)C1C1C=CC2O1 (stereo not given)

>  <GI50>
> 100 µM (inactive)

$$$$
>  <COMPOUND>
CC(C)C[C@H]1C(=O)N2CCC[C@H]2[C@]2(O)O[C@](NC(=O)[C@@H]3C=C4c5cccc6[nH]c(Br)c(c56)C[C@H]4N(C)C3)(C(C)C)C(=O)N12 [BROMOCRIPTINE MESYLATE]

>  <GI50>
51.2 µM (inactive)

$$$$
>  <COMPOUND>
O=C1[C@H](O)[C@@H]2CCC[C@@]23CCCN13

>  <GI50>
> 100 µM (inactive)

$$$$
>  <COMPOUND>
CSc1c(C#N)c2n(c3ccccc3[n+]2C)c2ncccc12

>  <GI50>
16.2 µM (inactive)

$$$$
>  <COMPOUND>
O=C(O)CCNc1[nH]cnc2ncnc1-2

>  <GI50>
> 100 µM (inactive)

$$$$
>  <COMPOUND>
CC1=Nc2c(O)nc(S)nc2NC(c2ccc(Cl)c(Cl)c2)C1 (stereo not given)

>  <GI50>
22.6 µM (inactive)

$$$$
>  <COMPOUND>
CC1=C(/C=C/C(C)=C/C2CC(N(C)C)=CC(=O)O2)C(C)(C)CCC1 (stereo not given)

>  <GI50>
11.9 µM (inactive)

$$$$
>  <COMPOUND>
COc1cccc(-c2nc(O)c3ccccc3n2)c1OC

>  <GI50>
> 100 µM (inactive)

$$$$
>  <COMPOUND>
CC(CC(=O)Nc1ccc(NC(=O)CC(C)/N=N\C(N)=S)cc1)/N=N\C(N)=S (stereo not given)

>  <GI50>
> 100 µM (inactive)

$$$$
>  <COMPOUND>
c1cc(-c2ncc(-c3ccc4c(c3)CCCO4)o2)ccn1

>  <GI50>
21 µM (inactive)

$$$$

Entry source: ChEMBL document CHEMBL1201862
